Values were extracted from ChEMBL document CHEMBL3352611.

Experiment: Selectivity index, ratio of Ki for sigma1 recetor in guinea-pig brain membranes to Ki for sigma2 receptor in rat liver membranes
Format: cell membranes
measurementType: Ratio Ki

{"molecule": "CCN(CCCCc1cn(-c2ccc(F)cc2)c2ccccc12)C1CCc2c1ccc(OC)c2OC (racemic)", "Ratio Ki": 2.14}

a. COc1ccc(CCNCCCCc2cn(-c3ccc(F)cc3)c3ccccc23)cc1OC
b. CCN(CCCCc1cn(-c2ccc(F)cc2)c2ccccc12)[C@H]1CCc2c1ccc(OC)c2OC
c. COc1ccc(CCN(C)CCCCc2cn(-c3ccc(F)cc3)c3ccccc23)cc1
Kindly order the items shown according to Ratio Ki, from the highest value down. Give the order by naming the labels one after another as requested.
b, a, c
(b: 2.67, a: 0.45, c: 0.2)

P. CCN(CCCCc1cn(-c2ccc(F)cc2)c2ccccc12)[C@@H]1CCc2c1ccc(OC)c2OC
Q. COc1ccc(CNCCCCc2cn(-c3ccc(F)cc3)c3ccccc23)cc1
R. COc1cc2c(cc1OC)CN(CCCCc1cn(-c3ccc(F)cc3)c3ccccc13)CC2
S. COc1ccc2c(c1OC)CCC2NCCCCc1cn(-c2ccc(F)cc2)c2ccccc12 (racemic)
# rank by Ratio Ki, ascending (min first) Give the order by naming the labels one after another as requested.
Q, S, P, R
(Q: 0.56, S: 1.87, P: 3.58, R: 260)

a. COc1ccc(CNCCCCc2cn(-c3ccc(F)cc3)c3ccccc23)cc1OC
b. COc1cccc(CCNCCCCc2cn(-c3ccc(F)cc3)c3ccccc23)c1
c. COc1ccc(CCN(C)CCCCc2cn(-c3ccc(F)cc3)c3ccccc23)cc1OC
d. COc1cccc(CCN(C)CCCCc2cn(-c3ccc(F)cc3)c3ccccc23)c1
e. CCN(CCCCc1cn(-c2ccc(F)cc2)c2ccccc12)Cc1cccc(OC)c1
Ordering criterion: Ratio Ki; begin with the maximum. Thanks in advance for listing the labels in the requested order.
a, c, b, d, e
(a: 16, c: 0.97, b: 0.26, d: 0.16, e: 0.03)

A. COc1ccc(CCNCCCCc2cn(-c3ccc(F)cc3)c3ccccc23)cc1
B. COc1ccc2c(c1OC)CC[C@@H]2NCCCCc1cn(-c2ccc(F)cc2)c2ccccc12
Could you point out whether the larger Ratio Ki belongs to A or to B ? Refer to your chosen item by its label in the answer.
B
(B: 0.8, A: 0.3)

###

Molecular target: ATP-dependent translocase ABCB1 (Homo sapiens, UniProt P08183)
Sequence (P08183 whole entry): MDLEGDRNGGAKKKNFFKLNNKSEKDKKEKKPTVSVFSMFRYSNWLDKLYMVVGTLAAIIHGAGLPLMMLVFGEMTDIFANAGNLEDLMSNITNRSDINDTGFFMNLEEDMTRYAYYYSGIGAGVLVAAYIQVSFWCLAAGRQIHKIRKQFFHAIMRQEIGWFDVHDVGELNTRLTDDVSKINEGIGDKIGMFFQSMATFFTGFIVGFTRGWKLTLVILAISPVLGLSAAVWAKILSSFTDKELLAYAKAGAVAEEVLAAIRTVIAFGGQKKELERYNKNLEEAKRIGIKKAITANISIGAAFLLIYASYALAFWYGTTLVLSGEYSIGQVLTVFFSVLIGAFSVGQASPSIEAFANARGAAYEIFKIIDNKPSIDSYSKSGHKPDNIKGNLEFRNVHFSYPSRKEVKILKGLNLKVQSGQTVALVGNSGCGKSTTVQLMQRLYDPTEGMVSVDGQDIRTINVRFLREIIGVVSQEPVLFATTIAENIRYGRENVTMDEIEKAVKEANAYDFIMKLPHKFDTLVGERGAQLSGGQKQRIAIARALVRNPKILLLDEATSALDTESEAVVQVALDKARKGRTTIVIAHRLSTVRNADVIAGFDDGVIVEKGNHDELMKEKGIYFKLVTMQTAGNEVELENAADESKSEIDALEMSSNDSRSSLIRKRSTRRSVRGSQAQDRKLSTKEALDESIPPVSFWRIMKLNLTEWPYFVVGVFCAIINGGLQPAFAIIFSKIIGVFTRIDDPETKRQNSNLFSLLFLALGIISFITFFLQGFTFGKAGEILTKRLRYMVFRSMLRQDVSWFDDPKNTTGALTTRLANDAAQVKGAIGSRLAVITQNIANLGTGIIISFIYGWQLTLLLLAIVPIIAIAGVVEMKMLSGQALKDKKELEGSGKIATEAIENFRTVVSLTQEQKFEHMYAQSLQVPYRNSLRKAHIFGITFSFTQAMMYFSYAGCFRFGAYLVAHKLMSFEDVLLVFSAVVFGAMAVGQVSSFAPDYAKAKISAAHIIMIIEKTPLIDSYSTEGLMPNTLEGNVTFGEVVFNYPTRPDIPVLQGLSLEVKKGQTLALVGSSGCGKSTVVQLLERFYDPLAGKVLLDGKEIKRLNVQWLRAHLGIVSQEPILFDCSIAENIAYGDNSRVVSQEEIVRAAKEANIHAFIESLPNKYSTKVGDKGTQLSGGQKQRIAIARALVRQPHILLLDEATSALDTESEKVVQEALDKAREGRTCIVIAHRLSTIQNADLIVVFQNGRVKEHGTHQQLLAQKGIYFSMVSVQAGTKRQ
Assay: Activity at MDR1 (unknown origin) expressed in MDCK-MDR1 cells by Calcein-AM assay
measurementType: EC50 (nM)

Before answering, review these 3 worked examples.
{"compound": "COc1cccc(CNCCCCc2cn(-c3ccc(F)cc3)c3ccccc23)c1", "testSystem": "ATP-dependent translocase ABCB1 (Homo sapiens, UniProt P08183)", "measurementUnits": "nM", "reportedValue": 2950}
{"compound": "COc1ccc2c(c1OC)CCC2NCCCCc1cn(-c2ccc(F)cc2)c2ccccc12 (racemic)", "testSystem": "ATP-dependent translocase ABCB1 (Homo sapiens, UniProt P08183)", "measurementUnits": "nM", "reportedValue": 870}
{"compound": "COc1ccc(CCNCCCCc2cn(-c3ccc(F)cc3)c3ccccc23)cc1", "testSystem": "ATP-dependent translocase ABCB1 (Homo sapiens, UniProt P08183)", "measurementUnits": "nM", "reportedValue": 2850}

1. CCN(CCCCc1cn(-c2ccc(F)cc2)c2ccccc12)Cc1cccc(OC)c1
2. COc1ccc(CNCCCCc2cn(-c3ccc(F)cc3)c3ccccc23)cc1OC
3. CCN(CCCCc1cn(-c2ccc(F)cc2)c2ccccc12)[C@H]1CCc2c1ccc(OC)c2OC
Let's sort these by EC50, smallest first. Go ahead? Give the order by naming the labels one after another as requested.
3, 2, 1

a. COc1ccc(CCNCCCCc2cn(-c3ccc(F)cc3)c3ccccc23)cc1OC
b. COc1ccc(CCN(C)CCCCc2cn(-c3ccc(F)cc3)c3ccccc23)cc1
Response body: label of entry with the larger EC50; valid values a , b . Choose, then provide that item's label.
b

P. CCN(CCCCc1cn(-c2ccc(F)cc2)c2ccccc12)Cc1ccc(OC)cc1
Q. CCN(CCCCc1cn(-c2ccc(F)cc2)c2ccccc12)C1CCc2c1ccc(OC)c2OC (racemic)
R. COc1cc2c(cc1OC)CN(CCCCc1cn(-c3ccc(F)cc3)c3ccccc13)CC2
S. COc1ccc(CNCCCCc2cn(-c3ccc(F)cc3)c3ccccc23)cc1
T. CCN(CCCCc1cn(-c2ccc(F)cc2)c2ccccc12)Cc1ccc(OC)c(OC)c1
Sort ascending by EC50. In your reply, arrange the labels in the requested order.
R, Q, T, P, S

a. COc1ccc2c(c1OC)CC[C@@H]2NCCCCc1cn(-c2ccc(F)cc2)c2ccccc12
b. COc1cccc(CCN(C)CCCCc2cn(-c3ccc(F)cc3)c3ccccc23)c1
c. COc1cc2c(cc1OC)CN(CC/C=C1\CCCc3c(OC)cccc31)CC2
d. COc1ccc2c(c1OC)CC[C@H]2NCCCCc1cn(-c2ccc(F)cc2)c2ccccc12
# rank by EC50, ascending (min first) Put the labels in the requested order and list them out.
c, a, d, b

A. COc1ccc(CCN(C)CCCCc2cn(-c3ccc(F)cc3)c3ccccc23)cc1OC
B. COc1cccc(CCNCCCCc2cn(-c3ccc(F)cc3)c3ccccc23)c1
# query: argmin of EC50 over A and B Give the chosen item's label as your response.
A

###

Target: Sigma non-opioid intracellular receptor 1 (Cavia porcellus, UniProt Q60492)
Sequence (Q60492 whole entry): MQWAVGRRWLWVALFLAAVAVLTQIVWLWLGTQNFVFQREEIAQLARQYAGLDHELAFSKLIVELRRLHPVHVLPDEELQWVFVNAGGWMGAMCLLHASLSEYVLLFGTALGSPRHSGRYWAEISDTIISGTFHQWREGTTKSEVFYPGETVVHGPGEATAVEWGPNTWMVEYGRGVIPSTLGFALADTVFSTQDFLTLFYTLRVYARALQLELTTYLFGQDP
Assay: Displacement of (+)-[3H]-pentazocine from sigma1 recetor in guinea-pig brain membranes without cerebellum by radioligand binding assay
pKi: −log10 of the molar value.
measurementType: pKi

{"compound": "CCN(CCCCc1cn(-c2ccc(F)cc2)c2ccccc12)C1CCc2c1ccc(OC)c2OC (racemic)", "testSystem": "Sigma non-opioid intracellular receptor 1 (Cavia porcellus, UniProt Q60492)", "pKi": 7.23}
{"compound": "COc1ccc(CCNCCCCc2cn(-c3ccc(F)cc3)c3ccccc23)cc1OC", "testSystem": "Sigma non-opioid intracellular receptor 1 (Cavia porcellus, UniProt Q60492)", "pKi": 6.03}
{"compound": "COc1ccc(CNCCCCc2cn(-c3ccc(F)cc3)c3ccccc23)cc1", "testSystem": "Sigma non-opioid intracellular receptor 1 (Cavia porcellus, UniProt Q60492)", "pKi": 6.89}
{"compound": "CCN(CCCCc1cn(-c2ccc(F)cc2)c2ccccc12)[C@@H]1CCc2c1ccc(OC)c2OC", "testSystem": "Sigma non-opioid intracellular receptor 1 (Cavia porcellus, UniProt Q60492)", "pKi": 6.90}
{"compound": "COc1ccc(CNCCCCc2cn(-c3ccc(F)cc3)c3ccccc23)cc1OC", "testSystem": "Sigma non-opioid intracellular receptor 1 (Cavia porcellus, UniProt Q60492)", "pKi": 5.57}

1. COc1ccc2c(c1OC)CC[C@H]2NCCCCc1cn(-c2ccc(F)cc2)c2ccccc12
2. COc1ccc(CCN(C)CCCCc2cn(-c3ccc(F)cc3)c3ccccc23)cc1OC
Compare pKi: is it lower for 1 or for 2 ? State the label of the item chosen.
2
(2: 6.47, 1: 6.76)

###

Test: Displacement of [3H]-DTG from sigma2 receptor in rat liver membranes in presence of […] (+)-pentazocine by radioligand binding assay
Format: cell membranes, Membrane
pKi: −log10 of the molar value.
measurementType: pKi

{"molecule": "COc1ccc(CCN(C)CCCCc2cn(-c3ccc(F)cc3)c3ccccc23)cc1OC", "measurementType": "pKi", "reportedValue": 6.46}
{"molecule": "COc1cccc(CCN(C)CCCCc2cn(-c3ccc(F)cc3)c3ccccc23)c1", "measurementType": "pKi", "reportedValue": 6.95}
{"molecule": "COc1ccc2c(c1OC)CC[C@H]2NCCCCc1cn(-c2ccc(F)cc2)c2ccccc12", "measurementType": "pKi", "reportedValue": 6.60}
{"molecule": "COc1cc2c(cc1OC)CN(CCCCc1cn(-c3ccc(F)cc3)c3ccccc13)CC2", "measurementType": "pKi", "reportedValue": 8.27}
{"molecule": "COc1ccc(CCN(C)CCCCc2cn(-c3ccc(F)cc3)c3ccccc23)cc1", "measurementType": "pKi", "reportedValue": 6.48}
{"molecule": "CCN(CCCCc1cn(-c2ccc(F)cc2)c2ccccc12)[C@@H]1CCc2c1ccc(OC)c2OC", "measurementType": "pKi", "reportedValue": 7.45}
{"molecule": "CCN(CCCCc1cn(-c2ccc(F)cc2)c2ccccc12)Cc1cccc(OC)c1", "measurementType": "pKi", "reportedValue": 7.04}
{"molecule": "COc1ccc(CCNCCCCc2cn(-c3ccc(F)cc3)c3ccccc23)cc1OC", "measurementType": "pKi", "reportedValue": 5.68}

I. COc1ccc2c(c1OC)CC[C@@H]2NCCCCc1cn(-c2ccc(F)cc2)c2ccccc12
II. CCN(CCCCc1cn(-c2ccc(F)cc2)c2ccccc12)C1CCc2c1ccc(OC)c2OC (racemic)
III. COc1ccc(CCNCCCCc2cn(-c3ccc(F)cc3)c3ccccc23)cc1
Put the molecules in ascending order of pKi. I'd appreciate it if you listed the labels in the requested order.
III, I, II
(III: 5.86, I: 6.82, II: 7.56)

1. COc1ccc(CNCCCCc2cn(-c3ccc(F)cc3)c3ccccc23)cc1OC
2. CCN(CCCCc1cn(-c2ccc(F)cc2)c2ccccc12)[C@H]1CCc2c1ccc(OC)c2OC
Lab note: record which item had the higher pKi, 1 or 2 . State the label of the item chosen.
2

I. COc1ccc2c(c1OC)CCC2NCCCCc1cn(-c2ccc(F)cc2)c2ccccc12 (racemic)
II. COc1ccc(CNCCCCc2cn(-c3ccc(F)cc3)c3ccccc23)cc1
Endpoint returns whichever of I and II has the numerically higher pKi. State the label of the item chosen.
I
(I: 6.94, II: 6.64)

I. COc1cccc(CNCCCCc2cn(-c3ccc(F)cc3)c3ccccc23)c1
II. CCN(CCCCc1cn(-c2ccc(F)cc2)c2ccccc12)Cc1ccc(OC)c(OC)c1
Lower value of pKi belongs to which: I or II ? The response must carry the label of the picked entry.
I

1. COc1cccc(CCNCCCCc2cn(-c3ccc(F)cc3)c3ccccc23)c1
2. CCN(CCCCc1cn(-c2ccc(F)cc2)c2ccccc12)Cc1ccc(OC)cc1
Please compare: 1 and 2 . Report which one has the smaller pKi value. Kindly state the label of the option you pick.
1
(1: 6.24, 2: 7.16)
